Recorded Activity by entry
- Tested on: Mus musculus
- measurementProtocol: Sedative-hypnotic activity in Swiss Albino mouse assessed as reduction of locomotor activity at 5 mg/kg, po after 1 hrs
- Type: functional
- Design: scale not given: the % may be the effect or the level left
The response must be a number in % with no trailing unit.

Worked examples, 3 molecules total:
O=c1c2ccccc2n2c(CN3CCOCC3)nnc2n1Cc1ccccc1
7
O=c1c2ccccc2n2c(CN3CCCCC3)nnc2n1Cc1ccccc1
9
Cc1nnc2n(Cc3ccccc3)c(=O)c3ccccc3n12
6

Q: Quick check: Activity of `CN1CCN(Cc2nnc3n(Cc4ccccc4)c(=O)c4ccccc4n23)CC1` ?
Ans: 8

Q: Quick one: Activity of `O=c1c2ccccc2n2c(CN3CCCC3)nnc2n1Cc1ccccc1` ?
Ans: 8
